Test system: SNB-19
Assay Name: Growth inhibition of human SNB19 cells assessed as cell growth at 10^-5 M incubated for 48 hrs by sulforhodamine B assay relative to control
Format: functional
Test Parameters: SNB-19, 48 h, read-out: Activity
Value Type: growth at 10 µM (%)
Provide only the numeric value, understood in %.

Tell me its growth at 10 µM given `O=C1/C(=C\c2cccn2CCCCCCn2c3ccccc3c(=O)c3ccccc32)c2ccccc2N1c1c(Cl)cccc1Cl` as the entry. 99.2

Tell me its growth at 10 µM given `O=C1NC(=O)C(=Cc2cccn2CCCn2c3ccccc3c(=O)c3ccccc32)C(=O)N1` as the entry. 94.2

Tell me its growth at 10 µM given `O=C1Nc2ccccc2/C1=C/c1cccn1CCCCCCn1c2ccccc2c(=O)c2ccccc21` as the entry. 97.1

Tell me its growth at 10 µM given `O=C1/C(=C\c2cccn2CCCCCn2c3ccccc3c(=O)c3ccccc32)c2ccccc2N1c1c(Cl)cccc1Cl` as the entry. 98.5

Tell me its growth at 10 µM given `O=C1Nc2ccccc2/C1=C/c1cccn1CCCCCn1c2ccccc2c(=O)c2ccccc21` as the entry. 95.3

Tell me its growth at 10 µM given `O=C1NC(=O)C(=Cc2cccn2CCCCn2c3ccccc3c(=O)c3ccccc32)C(=O)N1` as the entry. 75.4

Tell me its growth at 10 µM given `O=C1/C(=C\c2cccn2CCCCn2c3ccccc3c(=O)c3ccccc32)c2ccccc2N1c1c(Cl)cccc1Cl` as the entry. 98.2

Tell me its growth at 10 µM given `O=C1NC(=O)C(=Cc2cccn2CCCCCn2c3ccccc3c(=O)c3ccccc32)C(=O)N1` as the entry. 101

Tell me its growth at 10 µM given `O=C1Nc2ccccc2/C1=C/c1cccn1CCCCn1c2ccccc2c(=O)c2ccccc21` as the entry. 98.4

Tell me its growth at 10 µM given `O=C1NC(=O)C(=Cc2cccn2CCCCCCn2c3ccccc3c(=O)c3ccccc32)C(=O)N1` as the entry. 94.2

----------
Tested on: U-251
Assay Name: Growth inhibition of human U251 cells assessed as cell growth at 10^-5 M incubated for 48 hrs by sulforhodamine B assay relative to control
Format: functional
Test Parameters: U-251, 48 h, read-out: Activity
Below: a set of entries, each annotated with reported growth at 10 µM.
Provide only the numeric value, understood in %.

Completed entries (count: 9):
Chemical String	Experimental Value
O=C1NC(=O)C(=Cc2cccn2CCCCCn2c3ccccc3c(=O)c3ccccc32)C(=O)N1	96.8
O=C1Nc2ccccc2/C1=C/c1cccn1CCCCCCn1c2ccccc2c(=O)c2ccccc21	92.4
O=C1NC(=O)C(=Cc2cccn2CCCn2c3ccccc3c(=O)c3ccccc32)C(=O)N1	92.5
O=C1/C(=C\c2cccn2CCCCCn2c3ccccc3c(=O)c3ccccc32)c2ccccc2N1c1c(Cl)cccc1Cl	93
O=C1Nc2ccccc2/C1=C/c1cccn1CCCCCn1c2ccccc2c(=O)c2ccccc21	93.4
O=C1/C(=C\c2cccn2CCCCCCn2c3ccccc3c(=O)c3ccccc32)c2ccccc2N1c1c(Cl)cccc1Cl	97.6
O=C1/C(=C\c2cccn2CCCCn2c3ccccc3c(=O)c3ccccc32)c2ccccc2N1c1c(Cl)cccc1Cl	96
O=C1NC(=O)C(=Cc2cccn2CCCCn2c3ccccc3c(=O)c3ccccc32)C(=O)N1	76
O=C1NC(=O)C(=Cc2cccn2CCCCCCn2c3ccccc3c(=O)c3ccccc32)C(=O)N1	90.5

API: the following record is the query input.
# assay system U-251: give growth at 10 µM of `O=C1Nc2ccccc2/C1=C/c1cccn1CCCCn1c2ccccc2c(=O)c2ccccc21` 95.1
